test system: MCF-7; assay: [3H]-thymidine incorporation cell proliferation assay; format: cell-based, human; conditions: Homo sapiens, MCF7, 72 h, 3 days of treatment, mean ± SEM
property_label: IC50 (nM)
Entry rule: numbers only, all in nM.

Request: Would you kindly share the measured IC50 for CC(=O)c1c(C)c2cnc(Nc3ccc(N4CCNCC4)cn3)nc2n(C2CCCC2)c1=O ?
Result: 29.1

---

system: 51D1.3; experiment: SRB cell growth assay; assay type: cell-based, Chinese hamster; details: Cricetulus griseus, 72 h, 3 days of treatment, mean ± SEM
property_label: IC50

Request: I would be grateful if you could share the reported IC50 for CC(=O)c1c(C)c2cnc(Nc3ccc(N4CCNCC4)cn3)nc2n(C2CCCC2)c1=O .
Result: > 2500 nM

Request: I have this molecule here, CC1(C)C(/C=C/C2=C(Cl)C(=C/C=C3/N(CCCCCC(=O)O)c4ccccc4C3(C)C)/CCC2)=[N+](CCCCCC(=O)O)c2ccccc21.[Br-] , and I need its recorded IC50.
Result: > 2500 nM
